GI50 values, listed per item
System: A2780
PROCEDURE TEXT: Growth inhibition of human A2780 cells after 48 hrs by sulforhodamine B assay
Format: functional
CONDITION SUMMARY: A2780, 48 h, read-out: GI50
METRIC: GI50 (µM)

INSERT INTO measurements (line_notation, metric, qualifier_symbol, measured_result) VALUES
  ('C=C(C=O)[C@@H]1CC[C@@]2(C)CCC[C@@](C)(O)[C@@H]2C1', 'GI50', '=', 1.8),
  ('C=C(C(=O)OC)[C@@H]1CCC2=C[C@H](O)C[C@H](C)[C@@]2(C)C1', 'GI50', '=', 11),
  ('C=C(C(=O)O)[C@@H]1CCC2=CC(=O)C[C@H](C)[C@@]2(C)C1', 'GI50', '>', 100),
  ('C=C(CO)[C@@H]1CC[C@@]2(C)CCC[C@@](C)(O)[C@@H]2C1', 'GI50', '>', 100),
  ('C=C(C(=O)O)[C@@H]1CC[C@@]2(C)CCC[C@@](C)(O)[C@@H]2C1', 'GI50', '>', 100),
  ('C=C(C(=O)O)[C@@H]1CC[C@@]2(C)CCCC(C)=C2C1', 'GI50', '>', 100),
  ('O=c1[nH]cc(F)c(=O)[nH]1', 'GI50', '=', 4.4),
  ('C=C(C(=O)OC)[C@@H]1CCC2=CC(=O)C[C@H](C)[C@@]2(C)C1', 'GI50', '=', 1.9),
  ('C=C(C(=O)OC)[C@@H]1CC[C@@]2(C)CCC[C@@](C)(O)[C@@H]2C1', 'GI50', '>', 100),
  ('C=C(C(=O)OC)[C@@H]1CC[C@@]2(C)CCCC(C)=C2C1', 'GI50', '=', 18),
  ('CC[C@@]1(O)C(=O)OCc2c1cc1n(c2=O)Cc2cc3ccccc3nc2-1', 'GI50', '=', 0.46);
